Assay: Quantitative High-Throughput drug screen in 47 multiple myeloma cell lines against the NCATS MIPE library collection: KMM1_JCRB cell viability assay (AID 1918960); also: nearly all actives have a fitted effect of over 30% in size
Details: KMM1 myeloma viability, CellTiter-Glo ATP luminescence, 48 h; series mostly up to 45.8 µM
Inconclusive results are not listed. The source made the active and inactive calls. Calls follow the shape of the dose curve; as a rule, active = well fitted cell-killing curve with a large enough effect; inconclusive = small, poorly fitted or top-dose-only effect, or effect the other way; inactive = no such curve, though single readings can be large or run the other way.
The reply should name one outcome from true (1) (active), false (0) (inactive)

Hi team, can someone confirm the assay call for `CC1(C)CC(O)CC(C)(C)N1[O]` ? false (0)

Hi team, can someone confirm the assay call for `O=C(Nc1ccc(Oc2ccnc3[nH]ccc23)c(F)c1)c1cccn(-c2ccc(F)cc2)c1=O` ? true (1)

Hi team, can someone confirm the assay call for `CCCCCCCCCCCCc1ccc(S(=O)(=O)Nc2nncs2)cc1` ? false (0)

Hi team, can someone confirm the assay call for `CCCCCCCCCCCCCCCC(=O)OC[C@@H](NC(=O)C(Cl)Cl)[C@H](O)c1ccc([N+](=O)[O-])cc1` ? false (0)

Hi team, can someone confirm the assay call for `COc1cc(C=CC(=O)CC(=O)C=Cc2ccc(O)c(OC)c2)ccc1O` ? true (1)

Hi team, can someone confirm the assay call for `C[C@H](NC(=O)[C@@H](O)c1cc(F)cc(F)c1)C(=O)N[C@@H]1C(=O)N(C)c2ccccc2-c2ccccc21` ? false (0)

Hi team, can someone confirm the assay call for `Oc1cc(-c2nc(-c3ccccc3)[nH]c2-c2ccncc2)ccc1Cl` ? true (1)

Hi team, can someone confirm the assay call for CC(C(C)N1CC(=O)NC(=O)C1)N1CC(=O)NC(=O)C1 (centres undefined) ? false (0)

Hi team, can someone confirm the assay call for O=C1CSC(=O)N1C(CCc1ccncc1)COc1ccc(-c2cccc([N+](=O)[O-])c2)cc1 (centres undefined) ? false (0)

Hi team, can someone confirm the assay call for `O=C(C[C@@H]1CC=CCCC(=O)O[C@H](c2ccccc2)CNC1=O)NCc1ccc(Cl)cc1` ? false (0)

Hi team, can someone confirm the assay call for `C=Cc1c(C)c2cc3nc(cc4[nH]c(cc5nc(cc1[nH]2)C(C)=C5CCC(=O)O)c(CCC(=O)OC)c4C)[C@@]1(C)C3=CC=C(C(=O)OC)[C@H]1C(=O)OC` ? true (1)

Hi team, can someone confirm the assay call for `CN(C)c1ccc2cc(C(=O)N[C@@H](CCCN=C(N)CCl)C(=O)NCc3ccccc3)ccc2c1` ? true (1)

Hi team, can someone confirm the assay call for `CCOC(=O)N1CCN([N+]([O-])=NOc2ccc([N+](=O)[O-])cc2[N+](=O)[O-])CC1` ? true (1)

Hi team, can someone confirm the assay call for `O=c1c(O)c(-c2ccc(O)c(O)c2)oc2cc(O)ccc12` ? true (1)

Hi team, can someone confirm the assay call for `CON=C(C(=O)N[C@@H]1C(=O)N2C(C(=O)O)=C(CSC(=O)c3ccco3)CS[C@H]12)c1csc(N)n1` ? false (0)

Hi team, can someone confirm the assay call for `CCOc1cc2ncc(C#N)c(Nc3ccc(OCc4ccccn4)c(Cl)c3)c2cc1NC(=O)C=CCN(C)C` ? true (1)

Hi team, can someone confirm the assay call for `CNC(=O)c1ccc(Nc2cc(Nc3ccccc3S(=O)(=O)C(C)C)c3cc[nH]c3n2)nc1` ? true (1)

Hi team, can someone confirm the assay call for `Nc1nc(=O)n([C@H]2C[C@H](O)[C@@H](CO)O2)cc1F` ? true (1)

Hi team, can someone confirm the assay call for `CCCNS(=O)(=O)Nc1ncnc(OCCOc2ncc(Br)cn2)c1-c1ccc(Br)cc1` ? false (0)

Numbers sourced from PubChem BioAssay (NCATS).
